Molecular target: AHR (Homo sapiens, UniProt P35869)
Assay: In vitro assay 3: AHR-regulated CYP1A1 expression in human cell line (U937, qPCR, KA stimulation)
Format: cell-based
Settings: U937 cells, 200 uM KA, 6 hours, CYP1A1 expression by qPCR; read-out: Assay 3: Hum CYP1A1 Antagonism IC50
pIC50: −log10 of the molar value.
measured_property: pIC50

[
  {
    "molecule": "C[C@@H](CO)NC(=O)c1cc(-c2ccc(Cl)cc2)nn(-c2cnsc2)c1=O",
    "measured": 8.12
  },
  {
    "molecule": "O=C(N[C@H](CO)C1CC1)c1cc(-c2ccc(C(F)(F)F)cc2)nn(-c2cccnc2)c1=O",
    "measured": 7.78
  },
  {
    "molecule": "O=C(NCC(O)C(F)F)c1cc(-c2ccc(C(F)(F)F)cc2)nn(-c2cccnc2)c1=O (single isomer, unassigned; (-))",
    "measured": 7.98
  },
  {
    "molecule": "O=C(N[C@@H]1COC[C@@H]1O)c1cc(-c2ccc(C(F)(F)F)cc2)nn(-c2cccnc2)c1=O (single isomer, unassigned)",
    "measured": 7.91
  },
  {
    "molecule": "O=C(NCC(O)C(F)(F)F)c1cc(-c2ccc(Cl)cc2)nn(-c2cccnc2)c1=O (single isomer, unassigned; (+)) [Example 90]",
    "measured": 7.40
  },
  {
    "molecule": "O=C(NCC(O)C(F)F)c1cc(-c2ccc(Cl)cc2)nn(-c2cccnc2)c1=O (racemic) [Example 79]",
    "measured": 7.09
  },
  {
    "molecule": "O=C(NC(CO)C1CC1)c1cc(-c2ccc(Cl)cc2)nn(-c2cccnc2)c1=O (racemic) [Example 77]",
    "measured": 8.06
  }
]

====

Biological target: AHR (Homo sapiens, UniProt P35869)
Sequence (P35869 11-848): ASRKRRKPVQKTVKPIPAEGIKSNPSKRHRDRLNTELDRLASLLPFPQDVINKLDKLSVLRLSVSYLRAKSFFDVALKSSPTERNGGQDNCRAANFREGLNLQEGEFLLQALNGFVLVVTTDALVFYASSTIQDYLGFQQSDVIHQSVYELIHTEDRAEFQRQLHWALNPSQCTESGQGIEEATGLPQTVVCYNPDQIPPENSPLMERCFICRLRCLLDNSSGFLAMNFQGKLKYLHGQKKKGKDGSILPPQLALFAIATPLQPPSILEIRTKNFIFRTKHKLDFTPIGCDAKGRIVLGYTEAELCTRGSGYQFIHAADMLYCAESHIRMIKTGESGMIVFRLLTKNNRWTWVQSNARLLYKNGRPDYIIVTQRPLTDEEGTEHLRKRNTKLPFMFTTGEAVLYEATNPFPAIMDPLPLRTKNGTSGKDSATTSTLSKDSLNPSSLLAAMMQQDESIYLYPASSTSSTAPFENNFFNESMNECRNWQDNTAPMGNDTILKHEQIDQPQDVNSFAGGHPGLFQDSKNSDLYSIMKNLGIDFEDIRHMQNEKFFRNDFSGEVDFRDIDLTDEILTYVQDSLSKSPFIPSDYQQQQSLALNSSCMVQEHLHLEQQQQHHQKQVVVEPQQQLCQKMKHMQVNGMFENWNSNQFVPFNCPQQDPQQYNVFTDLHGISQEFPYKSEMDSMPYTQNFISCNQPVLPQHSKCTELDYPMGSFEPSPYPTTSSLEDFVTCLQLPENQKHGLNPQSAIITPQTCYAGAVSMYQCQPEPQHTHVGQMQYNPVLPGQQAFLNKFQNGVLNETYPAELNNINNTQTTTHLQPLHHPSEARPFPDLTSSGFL
Test: In vitro assay 1: antagonism in human cell line (transactivation assay, U87 cells prestimulated with kynurenic acid, DRE firefly luciferase reporter)
Type: cell-based
Parameters: host or cells: U87 glioblastoma cells, stably transfected with DRE firefly luciferase and renilla reporter constructs
Conditions: 150 uM kynurenic acid, 20 hours, read-out: Assay 1: AHR-luc Hum Antagonism IC50
pIC50: −log10 of the molar value.

[
  {
    "compound": "Cn1cc(-n2nc(-c3ccc(Cl)cc3)cc(C(=O)NCC(O)C(F)(F)F)c2=O)cn1 (single isomer, unassigned; (-)) [Example 19]",
    "pIC50": 8.41
  },
  {
    "compound": "C[C@H](NC(=O)c1cc(-c2ccc(OC(F)(F)F)cc2)nn(-c2cnsc2)c1=O)C(C)(C)O [Example 312]",
    "pIC50": 8.73
  },
  {
    "compound": "C[C@@H](CO)NC(=O)c1cc(-c2ccc(C(F)(F)F)nc2)nn(-c2cccnc2)c1=O [Example 166]",
    "pIC50": 6.74
  },
  {
    "compound": "Cn1cc(-n2nc(-c3ccc(Cl)cc3)cc(C(=O)NCC(O)C(F)F)c2=O)cn1 (single isomer, unassigned; (-)) [Example 22]",
    "pIC50": 7.70
  },
  {
    "compound": "C[C@@H](CO)NC(=O)c1cc(-c2ccc(N(C)C)cc2)nn(-c2cccnc2)c1=O [Example 191]",
    "pIC50": 8.47
  },
  {
    "compound": "O=C(NC[C@H](O)C(F)(F)F)c1cc(-c2ccc(Cl)cc2)nn(-c2cncc(F)c2)c1=O [Example 128]",
    "pIC50": 8.30
  },
  {
    "compound": "Cn1cc(-n2nc(-c3ccc(Cl)cc3)cc(C(=O)N[C@H]3CCC[C@H]3O)c2=O)cn1 [Example 50]",
    "pIC50": 8.08
  },
  {
    "compound": "O=C(N[C@H]1CCC[C@H]1O)c1cc(-c2ccc(C(F)(F)F)cc2)nn(-c2cccnc2)c1=O [Example 105]",
    "pIC50": 8.63
  },
  {
    "compound": "CC(C)(O)CNC(=O)c1cc(-c2ccc(Cl)cc2)nn(-c2csc(Cl)c2)c1=O [Example 250]",
    "pIC50": 7.77
  },
  {
    "compound": "Cn1cc(-n2nc(-c3ccc(C(F)(F)F)cc3)cc(C(=O)NCC(C)(C)O)c2=O)cn1 [Example 67]",
    "pIC50": 8.37
  },
  {
    "compound": "O=C(N[C@H]1COC[C@H]1O)c1cc(-c2ccc(Cl)cc2)nn(-c2ccnnc2)c1=O (relative stereo) [Example 181]",
    "pIC50": 6.04
  },
  {
    "compound": "O=C(N[C@H](CO)C1CC1)c1cc(-c2ccc(C(F)F)cc2)nn(-c2cccnc2)c1=O [Example 150]",
    "pIC50": 7.70
  },
  {
    "compound": "O=C(NC[C@H](O)C(F)(F)F)c1cc(-c2ccc(C(F)(F)F)cc2)nn(-c2cn[nH]c2)c1=O [Example 216]",
    "pIC50": 8.62
  },
  {
    "compound": "O=C(NC[C@H](O)C(F)(F)F)c1cc(-c2ccc(CF)cc2)nn(-c2cccnc2)c1=O [Example 280]",
    "pIC50": 6.75
  },
  {
    "compound": "Cc1ccc(-c2cc(C(=O)NC(CO)C(C)C)c(=O)n(-c3cnn(C)c3)n2)cc1 (single isomer, unassigned) [Example 3]",
    "pIC50": 6.98
  }
]

====

Biological target: AHR (Homo sapiens)
Assay: In vitro assay 3: AHR-regulated CYP1A1 expression in human cell line (U937, qPCR, KA stimulation)
Type: cell-based
Settings: U937 cells, 200 uM KA, 6 hours, CYP1A1 expression by qPCR; read-out: Assay 3: Hum CYP1A1 Antagonism IC50

[
  {
    "compound": "C[C@H](NC(=O)c1cc(-c2ccc(N(C)C)cc2)nn(-c2cnn(C)c2)c1=O)C(C)(C)O [Example 310]",
    "IC50": "1.69 nM"
  },
  {
    "compound": "Cn1cc(-n2nc(-c3ccc(C(F)(F)F)cc3)cc(C(=O)N[C@@H]3COC[C@@H]3O)c2=O)cn1 (single isomer, unassigned) [Example 218]",
    "IC50": "4.01 nM"
  },
  {
    "compound": "O=C(NCC(O)C(F)F)c1cc(-c2ccc(Cl)cc2)nn(-c2cccnc2)c1=O (single isomer, unassigned; (-)) [Example 87]",
    "IC50": "21.5 nM"
  },
  {
    "compound": "CC(C)(O)CNC(=O)c1cc(-c2ccc(Cl)cc2)nn(-c2cncc(F)c2)c1=O [Example 82]",
    "IC50": "34.5 nM"
  }
]

====

The reader will find reported pIC50 values listed item by item below.
Target: AHR (Homo sapiens, UniProt P35869)
Assay: In vitro assay 3: AHR-regulated CYP1A1 expression in human cell line (U937, qPCR, KA stimulation)
Assay type: cell-based
Conditions: U937 cells, 200 uM KA, 6 hours, CYP1A1 expression by qPCR; read-out: Assay 3: Hum CYP1A1 Antagonism IC50
Protocol: In Vitro Assay 3: AHR-Regulated CYP1A1 Expression in Human Cell Line To assess the AHR inhibitory activity of the substances described in this application, the ability thereof to antagonise ligand-induced AHR gene regulation in a dose-dependent manner was quantified. For this purpose, quantitative PCR analysis was used to determine expression of the AHR-regulated gene CYP1A1 in a human monocytic U937 cell line upon stimulation with 200 uM KA in the presence and absence of AHR inhibitor. […]
pIC50: −log10 of the molar value.
measured_property: pIC50

[
  {
    "molecule": "Cn1cc(-n2nc(-c3ccc(C(F)F)cc3)cc(C(=O)N[C@@H]3COC[C@@H]3O)c2=O)cn1 (single isomer, unassigned) [Example 315]",
    "measured_target": "AHR (Homo sapiens, UniProt P35869)",
    "measured": 7.92
  },
  {
    "molecule": "O=C(NC(CO)C(F)(F)F)c1cc(-c2ccc(OC(F)(F)F)cc2)nn(-c2cccnc2)c1=O (centres unmarked) [Example 149]",
    "measured_target": "AHR (Homo sapiens, UniProt P35869)",
    "measured": 7.95
  },
  {
    "molecule": "Cn1cc(-n2nc(-c3ccc(OC(F)(F)F)cc3)cc(C(=O)N[C@H](CO)C(F)(F)F)c2=O)cn1 [Example 47]",
    "measured_target": "AHR (Homo sapiens, UniProt P35869)",
    "measured": 8.78
  },
  {
    "molecule": "C[C@H](NC(=O)c1cc(-c2ccc(OC(F)F)cc2)nn(-c2cnn(C)c2)c1=O)C(C)(C)O [Example 309]",
    "measured_target": "AHR (Homo sapiens, UniProt P35869)",
    "measured": 7.39
  },
  {
    "molecule": "O=C(NC[C@H](O)C(F)(F)F)c1cc(-c2ccc(Cl)cc2)nn(-c2cncnc2)c1=O [Example 237]",
    "measured_target": "AHR (Homo sapiens, UniProt P35869)",
    "measured": 8.10
  },
  {
    "molecule": "C[C@H](CO)NC(=O)c1cc(-c2ccc(C(F)(F)F)cc2)nn(-c2cccnc2)c1=O [Example 118]",
    "measured_target": "AHR (Homo sapiens, UniProt P35869)",
    "measured": 7.24
  },
  {
    "molecule": "CC(C)(O)CNC(=O)c1cc(-c2ccc(C(F)(F)F)nc2)nn(-c2cnsc2)c1=O [Example 240]",
    "measured_target": "AHR (Homo sapiens, UniProt P35869)",
    "measured": 7.64
  },
  {
    "molecule": "O=C(N[C@H]1COC[C@H]1O)c1cc(-c2ccc(Cl)cc2)nn(-c2cccnc2)c1=O (single isomer, unassigned) [Example 172]",
    "measured_target": "AHR (Homo sapiens, UniProt P35869)",
    "measured": 7.63
  },
  {
    "molecule": "Cn1cc(-n2nc(-c3ccc(Cl)cc3)cc(C(=O)N[C@@H]3CCC[C@]3(C)O)c2=O)cn1 (relative stereo) [Example 317]",
    "measured_target": "AHR (Homo sapiens, UniProt P35869)",
    "measured": 7.43
  },
  {
    "molecule": "C[C@@H](CO)NC(=O)c1cc(-c2ccc(Cl)cc2)nn(-c2cncc(F)c2)c1=O [Example 80]",
    "measured_target": "AHR (Homo sapiens, UniProt P35869)",
    "measured": 7.49
  },
  {
    "molecule": "Cn1cc(-n2nc(-c3ccc(Cl)cc3)cc(C(=O)N[C@@H]3COC[C@@H]3O)c2=O)cn1 (single isomer, unassigned; enantiomer 1) [Example 44]",
    "measured_target": "AHR (Homo sapiens, UniProt P35869)",
    "measured": 8.03
  },
  {
    "molecule": "C[C@H](NC(=O)c1cc(-c2ccc(Cl)cc2)nn(-c2cnn(C(F)F)c2)c1=O)C(C)(C)O [Example 264]",
    "measured_target": "AHR (Homo sapiens, UniProt P35869)",
    "measured": 7.07
  },
  {
    "molecule": "CC(C)(O)CNC(=O)c1cc(-c2ccc(C(F)F)cc2)nn(-c2cccnc2)c1=O [Example 322]",
    "measured_target": "AHR (Homo sapiens, UniProt P35869)",
    "measured": 7.51
  },
  {
    "molecule": "CC(C)(O)CNC(=O)c1cc(-c2ccc(Cl)cc2)nn(-c2csc(Cl)c2)c1=O [Example 250]",
    "measured_target": "AHR (Homo sapiens, UniProt P35869)",
    "measured": 7.98
  }
]

Measured values drawn from patent US12522594B2 for this set.
